Tested System: ScLsb4
Test Description: SPOT peptide array binding signal intensity (averaged, normalized) (arbitrary units (background-subtracted, floor 0; scale differs between SH3 domains)); higher = stronger binding of the SH3 domain to the peptide
Measured Quantity: SPOT peptide array binding signal intensity

Prompt line: Quick one: SPOT peptide array binding signal intensity of "VPVAPPPPPASLGQS" ?
Response line: 4

Prompt line: Please give the measured SPOT peptide array binding signal intensity for this binder: "RRSKSLPTTPGIRSG"
Response line: 21

Prompt line: Which SPOT peptide array binding signal intensity value belongs to "AATTSTPPLPRRRAT" ?
Response line: 2060

Prompt line: # query: SPOT peptide array binding signal intensity of entry "NPNRRAPRRPLSTQH"
Response line: 35
